target: Orexin receptor type 2 (Homo sapiens, UniProt O43614); assay: Antagonist activity at human OX2 receptor expressed in CHO cells assessed as reduction in orexin-A induced calcium level at 10 uM incubated for 24 hrs by FLIPR calcium 4 assay
Sequence (O43614 whole entry): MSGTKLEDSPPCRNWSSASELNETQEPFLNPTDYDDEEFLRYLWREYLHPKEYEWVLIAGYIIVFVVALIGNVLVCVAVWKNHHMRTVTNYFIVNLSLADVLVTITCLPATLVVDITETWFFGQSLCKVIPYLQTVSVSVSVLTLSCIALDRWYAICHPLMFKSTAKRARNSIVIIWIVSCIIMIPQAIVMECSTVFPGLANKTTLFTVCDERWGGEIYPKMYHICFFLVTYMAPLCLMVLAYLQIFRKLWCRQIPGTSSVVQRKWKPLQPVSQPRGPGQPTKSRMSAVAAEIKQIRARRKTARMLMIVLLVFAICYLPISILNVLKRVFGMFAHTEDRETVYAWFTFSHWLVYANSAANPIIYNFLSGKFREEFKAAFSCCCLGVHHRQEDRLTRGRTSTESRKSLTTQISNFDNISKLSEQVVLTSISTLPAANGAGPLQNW
Entries and their Ki

| GIVEN_SMILES | Ki |
| --- | --- |
| Cc1ccc2c(C(=O)N(C)C)cc(S(=O)(=O)O)c-2cc1 | > 10 µM |
| CN(C)C(=O)c1ccc2c(C(=O)N(C)C)cc(S(=O)(=O)O)c-2cc1 | > 10 µM |
| Cc1ccc2c(C(=O)C(F)(F)F)cc(S(=O)(=O)O)c-2cc1 | > 10 µM |

# Ki of Cc1ccc2c(C(=O)C(F)(F)F)cc(S(=O)(=O)Nc3cccc(NCCNC(=O)c4cccc(C)c4)c3)c-2cc1 = 5 µM

# Ki of CN(C)C(=O)c1ccc2ccc(C(=O)C(F)(F)F)c-2cc1 = > 10 µM
